measured.target: Beta-secretase 1 (Homo sapiens)
Sequence (P56817 whole entry, the tested form may be a part): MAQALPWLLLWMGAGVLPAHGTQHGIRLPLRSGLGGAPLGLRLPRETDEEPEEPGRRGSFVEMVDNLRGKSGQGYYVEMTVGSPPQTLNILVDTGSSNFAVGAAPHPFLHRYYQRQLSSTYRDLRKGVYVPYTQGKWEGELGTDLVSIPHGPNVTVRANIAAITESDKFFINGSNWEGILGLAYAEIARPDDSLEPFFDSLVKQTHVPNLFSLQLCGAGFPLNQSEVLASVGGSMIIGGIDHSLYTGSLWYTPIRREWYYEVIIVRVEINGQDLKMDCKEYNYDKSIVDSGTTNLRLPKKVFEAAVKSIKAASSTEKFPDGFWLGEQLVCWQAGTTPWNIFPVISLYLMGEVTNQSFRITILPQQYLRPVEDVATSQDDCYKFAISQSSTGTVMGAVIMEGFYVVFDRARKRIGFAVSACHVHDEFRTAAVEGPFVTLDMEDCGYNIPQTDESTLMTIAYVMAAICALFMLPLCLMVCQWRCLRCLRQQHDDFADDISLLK
method.summary: Inhibition of recombinant human BACE1 (1 to 460 residues) expressed in baculovirus infected insect cells using rhodamine-EVNLDAEFK peptide as substrate measured after 60 mins by FRET assay
IC50 strictly under 80 nM means met; at 80 nM or over means not met.

A selection of reference data follows.
smiles.repr	measured.target	discrete.label
Fc1ccc(-c2cnc(-c3cccc(-c4cnc(-c5c[nH]c6cc(F)ccc56)[nH]4)c3)[nH]2)cc1	Beta-secretase 1 (Homo sapiens)	met
Fc1ccc2nc(-c3cccc(-c4cnc(-c5c[nH]c6cc(OC(F)(F)F)ccc56)[nH]4)c3)[nH]c2c1	Beta-secretase 1 (Homo sapiens)	not met
O=C(Nc1ccncc1)c1cccc(-c2cnc(-c3c[nH]c4ccccc34)[nH]2)c1	Beta-secretase 1 (Homo sapiens)	not met

Request: I'd appreciate it if you could check whether O=C(Nc1cccnc1)c1cccc(-c2cnc(-c3c[nH]c4ccccc34)[nH]2)c1 has IC50 smaller than 80 nM.
Result: not met

Request: Strictly below 80 nM in IC50? Fc1ccc2nc(-c3cccc(-c4cnc(-c5c[nH]c6cc(F)ccc56)[nH]4)c3)[nH]c2c1
Result: not met
